- experiment: Oral bioavailability in Wistar-Han rat at 5 mg/kg
- Assay type: ADME, organism-based
- experimental_setup: in vivo
readout_label: bioavailability (%)
Answer format: numeric, % implied, no suffix.

Below: 3 molecules and their reported bioavailability.
INSERT INTO assay_data (cpd_smiles, readout_label, measured_number) VALUES
  ('CCS(=O)(=O)c1ccc(Oc2cc(O[C@@H](C)CO)cc(-c3nccc(=O)[nH]3)c2)cc1', 'bioavailability', 6),
  ('Cc1cnc(-c2cc(Oc3ccc(S(C)(=O)=O)cc3)cc(OC(C)C)c2)[nH]c1=O', 'bioavailability', 2),
  ('CC(C)Oc1cc(Oc2ccc(S(C)(=O)=O)cc2)cc(-c2nccc(=O)[nH]2)c1', 'bioavailability', 29);

// switching to the query molecule
Ask | Please supply the value of reported bioavailability for the item "CCC(CC)Oc1cc(Oc2cnc(C(=O)N(C)C)nc2)cc(-c2nccc(=O)[nH]2)c1"
Reply | 32

----------
- experiment: AUC in Wistar-Han rat at 5 mg/kg, po
- Format: ADME, organism-based
- Design: dose 5 mg/kg, route oral
- experimental_setup: plasma
Let's look at some compounds and their measured AUC.
Answer format: numeric, ng·h/mL implied, no suffix.

Below: 3 compounds and their reported AUC.
INSERT INTO measurements (cpd_smiles, measured_number) VALUES
  ('CCC(CC)Oc1cc(Oc2cnc(C(=O)N(C)C)nc2)cc(-c2nccc(=O)[nH]2)c1', 580),
  ('CCS(=O)(=O)c1ccc(Oc2cc(O[C@@H](C)CO)cc(-c3nccc(=O)[nH]3)c2)cc1', 253),
  ('Cc1cnc(-c2cc(Oc3ccc(S(C)(=O)=O)cc3)cc(OC(C)C)c2)[nH]c1=O', 141);

Ask | Please supply the value of reported AUC for the item "CC(C)Oc1cc(Oc2ccc(S(C)(=O)=O)cc2)cc(-c2nccc(=O)[nH]2)c1"
Reply | 703

----------
Let's look at some compounds and their measured half-life.
- experiment: Half life in Wistar-Han rat at 1 mg/kg, iv
- Assay type: ADME, organism-based
- Set-up: dose 1 mg/kg, route intravenous
- experimental_setup: in vivo
Answer format: numeric, h implied, no suffix.

INSERT INTO results (cpd_smiles, measured_number) VALUES
  ('CCS(=O)(=O)c1ccc(Oc2cc(O[C@@H](C)CO)cc(-c3nccc(=O)[nH]3)c2)cc1', 1.8);

Ask | Please supply the value of reported half-life for the item "CCC(CC)Oc1cc(Oc2cnc(C(=O)N(C)C)nc2)cc(-c2nccc(=O)[nH]2)c1"
Reply | 6

Ask | Please supply the value of reported half-life for the item "CC(C)Oc1cc(Oc2ccc(S(C)(=O)=O)cc2)cc(-c2nccc(=O)[nH]2)c1"
Reply | 1.5

Ask | Please supply the value of reported half-life for the item "Cc1cnc(-c2cc(Oc3ccc(S(C)(=O)=O)cc3)cc(OC(C)C)c2)[nH]c1=O"
Reply | 5.3

----------
- experiment: Clearance in Wistar-Han rat at 1 mg/kg, iv
- Format: ADME, organism-based
- Parameters: dose 1 mg/kg, route intravenous
- experimental_setup: in vivo
Let's look at some molecules and their measured clearance.
Answer format: numeric, mL/min/kg implied, no suffix.

Ask | Please supply the value of reported clearance for the item "CC(C)Oc1cc(Oc2ccc(S(C)(=O)=O)cc2)cc(-c2nccc(=O)[nH]2)c1"
Reply | 61

Ask | Please supply the value of reported clearance for the item "Cc1cnc(-c2cc(Oc3ccc(S(C)(=O)=O)cc3)cc(OC(C)C)c2)[nH]c1=O"
Reply | 13

Ask | Please supply the value of reported clearance for the item "CCC(CC)Oc1cc(Oc2cnc(C(=O)N(C)C)nc2)cc(-c2nccc(=O)[nH]2)c1"
Reply | 44

Ask | Please supply the value of reported clearance for the item "CCS(=O)(=O)c1ccc(Oc2cc(O[C@@H](C)CO)cc(-c3nccc(=O)[nH]3)c2)cc1"
Reply | 19

----------
Let's look at some compounds and their measured CLint scaled.
- experiment: Intrinsic clearance in human liver microsomes
- Assay type: ADME, Microsome
- experimental_setup: read-out: CLH

Below: 3 compounds and their reported CLint scaled.
INSERT INTO results (cpd_smiles, result) VALUES
  ('CC(C)Oc1cc(Oc2ccc(S(C)(=O)=O)cc2)cc(-c2nccc(=O)[nH]2)c1', '< 9.8 mL/min/kg'),
  ('Cc1cnc(-c2cc(Oc3cnc(C(=O)N(C)C)nc3)cc(OC(C)C)c2)[nH]c1=O', '< 8 mL/min/kg'),
  ('CCc1cnc(-c2cc(Oc3ccc(S(C)(=O)=O)cc3)cc(OC(C)C)c2)[nH]c1=O', '< 8 mL/min/kg');

// switching to the query compound
Ask | Please supply the value of reported CLint scaled for the item "CCC(CC)Oc1cc(Oc2cnc(C(=O)N(C)C)nc2)cc(-c2nccc(=O)[nH]2)c1"
Reply | 22.4 mL/min/kg

----------
Let's look at some molecules and their measured CLint scaled.
- experiment: Intrinsic clearance in rat liver microsomes
- Type: ADME, Microsome
- experimental_setup: read-out: CLH

INSERT INTO results (cpd_smiles, result) VALUES
  ('CC(C)Oc1cc(Oc2ccc(S(C)(=O)=O)cc2)cc(-c2ncc(Cl)c(=O)[nH]2)c1', '< 25.4 mL/min/kg');

Ask | Please supply the value of reported CLint scaled for the item "CCS(=O)(=O)c1ccc(Oc2cc(O[C@@H](C)CO)cc(-c3nccc(=O)[nH]3)c2)cc1"
Reply | < 25.4 mL/min/kg

Ask | Please supply the value of reported CLint scaled for the item "CNS(=O)(=O)c1ccc(Oc2cc(O[C@@H](C)CO)cc(-c3ncc(C)c(=O)[nH]3)c2)cc1"
Reply | < 25.4 mL/min/kg

----------
Let's look at some compounds and their measured CLint scaled.
- experiment: Intrinsic clearance in rat liver microsomes
- Assay type: ADME, Microsome
- experimental_setup: read-out: CLH

INSERT INTO assay_data (cpd_smiles, result) VALUES
  ('COC[C@H](C)Oc1cc(Oc2cnc(C(=O)N(C)C)nc2)cc(-c2nccc(=O)[nH]2)c1', '38 mL/min/kg'),
  ('COc1cnc(-c2cc(Oc3ccc(S(C)(=O)=O)cc3)cc(OC(C)C)c2)[nH]c1=O', '< 25.4 mL/min/kg'),
  ('COC[C@H](C)Oc1cc(Oc2cnc(C(=O)N(C)C)cn2)cc(-c2nccc(=O)[nH]2)c1', '< 25.4 mL/min/kg');

// switching to the query compound
Ask | Please supply the value of reported CLint scaled for the item "Cc1cnc(-c2cc(Oc3cnc(C(=O)N(C)C)nc3)cc(OC(C)C)c2)[nH]c1=O"
Reply | < 25.4 mL/min/kg

----------
- experiment: Intrinsic clearance in rat liver microsomes
- Type: ADME, Microsome
- experimental_setup: read-out: CLH
Let's look at some compounds and their measured CLint scaled.
Answer format: numeric, mL/min/kg implied, no suffix.

INSERT INTO measurements (cpd_smiles, readout_unit, measured_number) VALUES
  ('CCC(CC)Oc1cc(Oc2cnc(C(=O)N(C)C)nc2)cc(-c2nccc(=O)[nH]2)c1', 'mL/min/kg', 91);

Ask | Please supply the value of reported CLint scaled for the item "Cc1ccc(NC(=O)c2cc(Oc3ccc(S(C)(=O)=O)cc3)cc(OC(C)C)c2)nc1"
Reply | 97

----------
- experiment: Lipophilicity, log D of the compound by shake-flask method
- Format: physicochemical
- experimental_setup: octanol/water
Let's look at some compounds and their measured logD.

Below: 4 compounds and their reported logD.
INSERT INTO assay_data (cpd_smiles, readout_label, result) VALUES
  ('CC(C)Oc1cc(Oc2cnc(C(=O)N(C)C)cn2)cc(-c2nccc(=O)[nH]2)c1', 'logD', 1.34),
  ('CCS(=O)(=O)c1ccc(Oc2cc(O[C@@H](C)CO)cc(-c3nccc(=O)[nH]3)c2)cc1', 'logD', 1.42),
  ('CC(C)Oc1cc(Oc2cnc(C(=O)N(C)C)c(F)c2)cc(-c2nccc(=O)[nH]2)c1', 'logD', 1.54),
  ('Cc1cnc(-c2cc(Oc3ccc(S(=O)(=O)N(C)C)cc3)cc(O[C@@H](C)CO)c2)[nH]c1=O', 'logD', 2.26);

// switching to the query compound
Ask | Please supply the value of reported logD for the item "CNS(=O)(=O)c1ccc(Oc2cc(O[C@@H](C)CO)cc(-c3ncc(C)c(=O)[nH]3)c2)cc1"
Reply | 2.01
